# experimentSummary: Osmolality of LNP formulation
# Type: physicochemical
# testParameters: LNP formulation in 20 mM Tris 8% Sucrose storage buffer
Some molecules, each annotated with its measured Osmolality (mOsm/kg).
Your answer is read as mOsm/kg, so omit the unit and give the number.

Can you look up the measured Osmolality (mOsm/kg) of CCCCCCCCC(CCCCCCCC)OC(=O)CCCCCCCN(CCCCCCC(C(=O)OCCCCCC)C(=O)OCCCCCC)CCCNC(=O)C1CC1 [Compound M6] for me?
317

And CCCCCCCCOC(=O)C(CCCCCCN(CCO)CCCCCCCC(=O)OC(CCCCCCCC)CCCCCCCC)C(=O)OCCCCCCCC [Compound M2] ?
315

Further, for CCCCCCCCC(CCCCCCCC)OC(=O)CCCCCCCN(CCCCCCCC(=O)OCCC(CCCC)CCCC)CCCNS(=O)(=O)CC [Compound L2, reference compound] ?
315
